Data credit: ChEMBL document CHEMBL4229528

Entries and their selectivity ratio values follow.
Test: Selectivity ratio of pEC50 for African green monkey Vero cells to pEC50 for Trypanosoma cruzi amastigote forms infected in African green monkey Vero cells
Format: toxicity

Worked cases, selectivity ratio given:
>>> reported_value("COc1cc(Nc2nc(C(=O)N3CCCC3)cc(N(C)C)n2)ccc1F")
"> 1.6"
>>> reported_value("Cc1cc(N(C)C)nc(NCc2ccccc2)n1")
"> 16"
>>> reported_value("Cc1cc(N(C)C)nc(Nc2ccc3c(c2)OCO3)n1")
"> 40"

q: I am curious: what selectivity ratio value has been reported for "COc1cc(Nc2nccc(N(C)C)n2)ccc1F" ?
a: > 13

q: Try the molecule "Cc1cc(N(C)C)nc(N[C@H]2CC[C@H](NC(=O)c3ccccc3)CC2)n1"
a: > 40
